The measurements presented in this section are drawn from PubChem BioAssay AID1259417.

procedure summary: M. tuberculosis growth inhibition, HTS (AID 1259417);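 also: bacteria grown with compound for 5 days at 37 °C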
test context: M. tuberculosis growth inhibition; stronger effect = higher value; concentration not given here
Hit rate of the full screen: of about 1,100 compounds, about 760 (69%) were called active. So high a share suggests a set chosen from earlier hits. The list shows a part of the results.
measure: inhibition (%)
Give bare numbers, in %.

Reference set (6 entries):
Cc1cccc(Nc2nnc(SCC(=O)Nc3cccnc3Cl)s2)c1 | 14.2
N#Cc1ccc(NC(=O)CSc2ccc(Br)cc2)cc1 | 46.8
O=C(NCCc1ccc(F)cc1)NC12CC3CC(CC(C3)C1)C2 | 96.2
CC(C)(C)c1ccc(C(=O)Nc2nc3ccccc3[nH]2)cc1 | 86.5
Cc1cc(C(=O)Oc2ccccc2)ccc1[N+](=O)[O-] | 55.9
O=C(CSc1ccc(Cl)cc1)Nc1ccc(Br)cn1 | 38

Give one value of inhibition per listed compound.
1. CC(C)(C)NC(=O)COC(=O)c1snc(C(=O)NC2CCCCC2)c1N
2. O=c1c2ccccc2nc(C=Cc2ccc([N+](=O)[O-])o2)n1-c1cccc(O)c1

## Result
1. 66.6
2. -1.52
